Just for reference, paper PMC9721025 is where these values come from.

Assay: Pharmacokinetics in beagles, multiple-dose regimen (once per day for 7 days) of TRQI or TRQC, plasma LC-MS/MS
Assay type: in vivo
Conditions: female, beagle, dog, po, 0.09 g/kg, TRQC 0.09 g/kg for 7 days, beagle No. 5, read-out: AUC0–24 h
MEASURE_NAME: AUC(0-t) (ng·h/mL)
Numbers only, in ng·h/mL.

Some compounds with known AUC(0-t) results, for comparison:
>>> print(df.to_string())
                                chem_smiles    units  value_measured
0  O=C(/C=C/c1ccc(O)c(O)c1)O[C@@H]1C[C@](O)(C(=O)O)C[C@@H](O)[C@H]1O  ng·h/mL            11.4
1  O=C(O)[C@H]1O[C@@H](Oc2cc3oc(-c4ccccc4)cc(=O)c3c(O)c2O)[C@H](O)[C@@H](O)[C@@H]1O  ng·h/mL             245
2  C[C@H](CCC(=O)O)[C@H]1CC[C@H]2[C@@H]3[C@@H](O)C[C@@H]4C[C@H](O)CC[C@]4(C)[C@H]3CC[C@]12C  ng·h/mL           10500

Task: Endpoint output: AUC(0-t) of C[C@H](CCC(=O)O)[C@H]1CC[C@H]2[C@@H]3[C@H](O)C[C@@H]4C[C@H](O)CC[C@]4(C)[C@H]3CC[C@]12C . Value?
Output: 500
